System: A498
assay-text: NCI tumour cell line growth inhibition, 48 h
Active and inactive are the calls of the source. Rule as the data show it: active = GI50 up to about 1.1 µM and inactive = higher.
Your answer must be one of the following: active, inactive

CC1=NN(C(=O)c2ccccc2O)C(=O)/C1=C/c1cccc([N+](=O)[O-])c1 :: active
CC(C)=CCC/C(=C/CC/C(C)=C/CCc1ccoc1)C(=O)O :: inactive
CC1=NN(C(=O)CC(=O)Nc2cccc(C)c2)C(=O)C1/N=N\c1ccc(S(=O)(=O)c2ccc(/N=N/C3C(=O)N(C(=O)CC(=O)Nc4cccc(C)c4)N=C3C)cc2)cc1 (stereo not given) :: inactive
CCCCCCCCCCCCCCCC(=O)Nc1ccn(C2CC(OP(=O)(O)OCC3OC(n4cc(F)c(=O)[nH]c4=O)CC3OC(C)=O)C(CO)O2)c(=O)n1 (stereo not given) :: inactive

Alright, here's another compound for you.
Q: Per the records of this test, what outcome belongs to "COC(=O)[C@@H](NC(=O)[C@H](N)Cc1ccc(N(CCCl)CCCl)cc1)C(C)C" ?
Result: inactive

###

Test system: KM12
assay-text: NCI tumour cell line growth inhibition, 48 h
Calls of active or inactive are those of the source. No stated cut-off is given here; in the data, active = GI50 up to about 1.1 µM and inactive = higher.
Measured GI50 accompanies every entry in the list below.

Answered examples (3):
CN(N)c1nc(N)c(C#N)c(C#N)c1C#N :: > 10 µM (inactive)
O=S(=O)(O)CCCC1S(=O)(=O)OCCOS1(=O)=O :: > 100 µM (inactive)
Cc1cc2c(cc1C)[n+]([O-])c(C(=O)/C=C/c1ccc(Cl)cc1)c(C)[n+]2[O-] :: 33.7 µM (inactive)

Q: Please report the recorded GI50 for COc1ccc2c3c(n(Cc4ccccc4)c(=O)c2c1)-c1cc(OC)c(OC)cc1C3C (stereo not given) .
Result: 23.3 µM (inactive)

Q: Which GI50 value belongs to "O=C1N/C(=N/N=C/c2cccs2)N/C1=C\c1ccco1" ?
Result: 34 µM (inactive)

###

System: MOLT-4
assay-text: NCI tumour cell line growth inhibition, 48 h
Active and inactive are the calls of the source. Cut-off read from the data, not from the text of the source: active = GI50 up to about 1.1 µM and inactive = higher.
measured-parameter: GI50

CC(=O)OC/C=C\Cn1ncc(=O)[nH]c1=O :: 19.2 µM (inactive)

Q: Field request: GI50 | item: "C=C1CC/C=C(/C(=O)O)CC[C@H]2[C@@H]1CC2(C)C"
Result: > 100 µM (inactive)

Q: Given the entry "CN(C)c1ccc(/C=C/C(=O)c2ccc(O)cc2)cc1" , report its measured GI50.
Result: 2.64 µM (inactive)

###

System: IGROV-1
assay-text: NCI tumour cell line growth inhibition, 48 h
Activity calls are given as the source filed them. Cut-off read from the data, not from the text of the source: active = GI50 up to about 1.1 µM and inactive = higher. Peptide text beside a SMILES is read from it. * marks the point of attachment. Cbz = O=C(OCc1ccccc1)*
Choose one outcome from this list and give only that: active, inactive

O=C(O)CCC(NC(=O)OCc1ccccc1)C(=O)NC(Cc1c[nH]cn1)C(=O)O (stereo not drawn) (Cbz-Glu-His-OH; configuration not given here) :: inactive
O=C1CCN(CCC(F)(F)C(F)(F)C(F)(F)C(F)(F)F)C(=S)N1 :: inactive
Clc1ccc(C2=NNC(c3cccc(Cl)c3)C2)cc1 (centres undefined) :: active

Kindly consider the entry below.
Q: Please indicate how the test categorized COC(=O)/C=C(\C)CCC1SC1(C)C (centres undefined) .
Result: inactive

###

System: HOP-92
assay-text: NCI tumour cell line growth inhibition, 48 h
Active and inactive are the calls of the source. No stated cut-off is given here; in the data, active = GI50 up to about 1.1 µM and inactive = higher.
Outcomes you can answer with include only these: active, inactive

Consider the worked cases shown below.
Clc1ccc(C2=NOC3C4CCC(C4)C23)cc1 (stereo not given) :: inactive
CC(=O)OC1=C2CC3(C)OC(=O)CC(C)(C)C3=CC=C2C=C(C(C)C)C1=O (stereo not given) :: active
C=CCCCN1CCCC(C)C1=S (stereo not given) :: inactive
O=C1N/C(=N/N=C/c2cccs2)N/C1=C\c1ccco1 :: inactive
Cc1ccc2c(c1)C(=C(C#N)C#N)CCCS2(=O)=O :: inactive

Q: Call for entry "NC1=NC(Cn2nc(-c3ccccc3)c3ccccc3c2=O)=NNC(=O)N1" :
Result: inactive
